All figures here come from patent US20240218374.

Target: Spike S1 & S2 ECD (SARS-CoV-2) (UniProt P0DTC2)
Assay: filter
Details: NapdU at 8; other dU Tyr-dU; dC Nap-dC; SB18T0.01, 37 C
Assay metric: pKd
// pKd: -log10(molar conc.)

Ask: What measured pKd is associated with GGGANANNANGNGNNNGANNGNNNGGANG [26874-29_49] on Spike S1 & S2 ECD (SARS-CoV-2) (UniProt P0DTC2)?
Result: 9.40

* * *

Target: Spike S1 & S2 ECD (SARS-CoV-2) (UniProt P0DTC2)
Assay: filter
Settings: NapdU at 5; other dU Tyr-dU; dC Nap-dC; SB18T0.01, 37 C
Assay metric: pKd
Hey, just a heads up that pKd is the negative log base 10 of the concentration in molar.

Ask: Any idea what pKd was measured for GGGANANNANGNGNNNGANNGNNNGGANG [26874-29_47] ?
Result: 9.51

* * *

Target: Spike S1 & S2 ECD (SARS-CoV-2)
Assay: filter
Conditions: PBndU at 10 (printed sequence lacks Y at 10, F^ in place); other dU Tyr-dU; dC Nap-dC; SB18T0.01, 37 C
Assay metric: Kd
Phrase the answer as number then unit, nothing more needed.

Ask: Returns the measured Kd for the input sequence. Input: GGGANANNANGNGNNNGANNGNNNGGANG [26874-29_70]
Result: 0.2 nM

* * *

Molecular target: Spike S1 & S2 ECD (SARS-CoV-2)
Test: filter
Settings: POPdU at 23; other dU Tyr-dU; dC Nap-dC; low plateau
Assay metric: Kd (nM)
Provide the reading as a plain figure in nM.

Ask: Please give the measured Kd for this sequence: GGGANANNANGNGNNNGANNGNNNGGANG [26874-29_125]
Result: 0.37

* * *

Target: Spike S1 & S2 ECD (SARS-CoV-2) (UniProt P0DTC2)
Assay: filter
Conditions: Y=Tyr-dU, p=Nap-dC, position 14 PBn-dU; Kd/Kd_20 0.33
Assay metric: pKd
Field pKd (float): negative decimal logarithm of the concentration in molar.

Ask: Which pKd is reported for this sequence? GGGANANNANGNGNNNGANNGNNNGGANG [26874-29_72]
Result: 9.85

* * *

Target: Spike S1 & S2 ECD (SARS-CoV-2) (UniProt P0DTC2)
Experiment: filter
Details: PEdU at 8; other dU Tyr-dU; dC Nap-dC; SB18T0.01, 37 C
Assay metric: pKd
Reminder that pKd means the negative base-10 logarithm of the concentration expressed in mol/L.

Ask: Using the record for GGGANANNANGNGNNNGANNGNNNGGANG [26874-29_79] , report its pKd.
Result: 9.77

* * *

Biological target: Spike S1 & S2 ECD (SARS-CoV-2) (UniProt P0DTC2)
Experiment: filter
Details: NEdU at 5; other dU Tyr-dU; dC Nap-dC; SB18T0.01, 37 C
Assay metric: Kd (nM)
The figure you give is taken to be in nM; do not add the unit.

Ask: GET /values?readout=Kd&system=Spike S1 & S2 ECD (SARS-CoV-2) (UniProt P0DTC2)&item= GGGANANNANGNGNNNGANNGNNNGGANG [26874-29_76]
Result: 0.46

* * *

Biological target: Spike S1 & S2 ECD (SARS-CoV-2)
Assay: filter
Settings: BPEdU at 5; other dU Tyr-dU; dC Nap-dC; assigned, low plateau
Assay metric: pKd
# reply with the number alone; pKd is -log10 of concentration in mol/L

Ask: Tell me the measured pKd of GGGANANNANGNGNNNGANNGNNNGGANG [26874-29_147] , please.
Result: 9.36

* * *

Target: Spike S1 & S2 ECD (SARS-CoV-2) (UniProt P0DTC2)
Assay: filter
Settings: Y=Tyr-dU, p=Nap-dC, position 14 POP-dU; value curated as assigned; Kd/Kd_20 1656
Assay metric: pKd
Remember the convention: pKd equals -log10 of concentration in molar.

Ask: Which pKd is listed for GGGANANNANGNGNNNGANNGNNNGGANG [26874-29_123] ?
Result: 6.30

* * *

Biological target: Spike S1 & S2 ECD (SARS-CoV-2) (UniProt P0DTC2)
Assay: filter
Settings: BndU at 5; other dU Tyr-dU; dC Nap-dC; SB18T0.01, 37 C
Assay metric: pKd
The read-out pKd is expressed as -log10 of concentration in moles per litre.

Ask: // returns reported pKd for input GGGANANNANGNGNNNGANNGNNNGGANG [26874-29_57]
Result: 9.68

* * *

Molecular target: Spike S1 & S2 ECD (SARS-CoV-2) (UniProt P0DTC2)
Experiment: filter
Settings: MOEdU at 10; other dU Tyr-dU; dC Nap-dC; SB18T0.01, 37 C
Assay metric: pKd
API: returns pKd as number; meaning -log10 of concentration in mol/L.

Ask: Requested field: pKd. Item: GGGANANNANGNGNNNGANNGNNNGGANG [26874-29_110]
Result: 9.37

* * *

Molecular target: Spike S1 & S2 ECD (SARS-CoV-2)
Test: filter
Details: ThdU at 23; other dU Tyr-dU; dC Nap-dC; SB18T0.01, 37 C
Assay metric: pKd
// scale note: pKd = -log10(conc_M); give the bare number

Ask: Consider the sequence shown here: GGGANANNANGNGNNNGANNGNHNGGANG [26874-29_104] What is its recorded pKd?
Result: 9.23

* * *

Molecular target: Spike S1 & S2 ECD (SARS-CoV-2) (UniProt P0DTC2)
Assay: filter
Details: POPdU at 5; other dU Tyr-dU; dC Nap-dC; SB18T0.01, 37 C
Assay metric: pKd
Friendly reminder that pKd comes from taking -log10 of the concentration in mol/L.

Ask: Give recorded pKd with Spike S1 & S2 ECD (SARS-CoV-2) (UniProt P0DTC2) for the following sequence: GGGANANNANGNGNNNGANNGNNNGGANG [26874-29_117]
Result: 9.38

* * *

Target: Spike S1 & S2 ECD (SARS-CoV-2)
Assay: filter
Settings: Y=Tyr-dU, p=Nap-dC, position 14 BPE-dU; Kd/Kd_20 0.28
Assay metric: pKd
Schema: pKd number; meaning minus log10 of the concentration expressed in molar units.

Ask: Entry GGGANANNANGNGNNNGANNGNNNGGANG [26874-29_153] : reported pKd = ?
Result: 9.96

* * *

Target: Spike S1 & S2 ECD (SARS-CoV-2) (UniProt P0DTC2)
Assay: filter
Settings: TrpdU at 8; other dU Tyr-dU; dC Nap-dC; SB18T0.01, 37 C
Assay metric: pKd
Note on units: pKd is unitless, being -log10 of a concentration expressed in mol/L.

Ask: Could you share which pKd value was measured for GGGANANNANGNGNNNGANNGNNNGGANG [26874-29_58] ?
Result: 9.57

* * *

Biological target: Spike S1 & S2 ECD (SARS-CoV-2) (UniProt P0DTC2)
Assay: filter
Details: MBndU at 14; other dU Tyr-dU; dC Nap-dC; SB18T0.01, 37 C
Assay metric: pKd
In plain terms, pKd is the concentration in mol/L turned into minus its base-10 logarithm.

Ask: Given the entry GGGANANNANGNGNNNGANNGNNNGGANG [26874-29_152] , what pKd was observed with Spike S1 & S2 ECD (SARS-CoV-2) (UniProt P0DTC2)?
Result: 9.48

* * *

Molecular target: Spike RBD-mFc (ACE2 inhibition assay) (SARS-CoV-2) (UniProt P0DTC2)
Assay: inhibition
Details: Y=Tyr-dU, p=Nap-dC; printed CCTTGGGAYApYAYGpGYppGAppGpYpGGApGGAGAAGG [Tyr-dU: 9,12,14,18,27; Nap-dC: 11,16,19,20,23,24,26,28,32]
Assay metric: pEC50
Expect pEC50 as a plain number equal to -log10 of the molar concentration.

Ask: Which pEC50 value belongs to CCTTGGGATACTATGCGTCCGACCGCTCGGACGGAGAAGG [26874-29_4 (SL1111)] ?
Result: 8.38

* * *

Target: Spike S1 & S2 ECD (SARS-CoV-2) (UniProt P0DTC2)
Experiment: filter
Conditions: Y=Tyr-dU, p=Nap-dC, position 10 BF-dU; Kd/Kd_20 0.33
Assay metric: Kd

Ask: // lookup Kd for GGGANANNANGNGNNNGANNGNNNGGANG [26874-29_90]
Result: 0.14 nM

* * *

Biological target: Spike S1 (SARS-CoV-2) (UniProt P0DTC2)
Assay: filter
Details: P=Nap-dU; printed GCATCAPCPCCCAGCPAAPGAGPGPCPGAAPPGGACPGGPCCPCPGGGGA [7,9,16,19,23,25,27,31,32,37,40,43,45]
Assay metric: pKd
// scale note: pKd = -log10(conc_M); give the bare number

Ask: Quick check: pKd of GCATCATCTCCCAGCTAATGAGTGTCTGAATTGGACTGGTCCTCTGGGGA [26860-75_3 (SL1107)] ?
Result: 8.55
